B1: tRNA (parent)
chain: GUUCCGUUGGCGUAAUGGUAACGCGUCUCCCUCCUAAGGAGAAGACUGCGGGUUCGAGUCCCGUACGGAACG

- Variants of: B1
- Test method notes: yeast fitness, log relative to wild type (ln ratio); higher = fitter; tRNA-Arg(CCU), competitive growth, 37 C, 1 M NaCl
variants and their reported yeast fitness (ln)
Lab note: jot down the number only; don't add units.

Sequence change: U2G G6A C27U A43C C66A A69G A70U
Quantity: yeast fitness (ln)
Measurement: -0.301

[in] For the variant shown here, U2C C27U A43C C66U A70G , give the reported yeast fitness (ln).
[out] -0.232

[in] For the variant shown here, G1A U2C A43C C46U C66U A70U C71U , give the reported yeast fitness (ln).
[out] -0.202

[in] For the variant shown here, U2G G6A C27U C66A A70U , give the reported yeast fitness (ln).
[out] -0.126

[in] For the variant shown here, G1A G6A C27U A43C C46U A70G C71U , give the reported yeast fitness (ln).
[out] -0.315

[in] For the variant shown here, G6U C27U C46U C66A A70G C71U , give the reported yeast fitness (ln).
[out] -0.434

[in] For the variant shown here, U2C G6U C27U A43C C46U C66A , give the reported yeast fitness (ln).
[out] 0.00284

[in] For the variant shown here, G1A U2G G6A C27U A43C C46U C66A A69G C71U , give the reported yeast fitness (ln).
[out] -0.275

[in] For the variant shown here, G1A G6U C27U A43C C71U , give the reported yeast fitness (ln).
[out] -0.352

[in] For the variant shown here, G1A U2G G6A A43C A69G A70U C71U , give the reported yeast fitness (ln).
[out] -0.411

[in] For the variant shown here, G1A U2G G6U C27U A43C C46U A70U , give the reported yeast fitness (ln).
[out] -0.341

[in] For the variant shown here, U2G G6A A43C C46U C66U A70U , give the reported yeast fitness (ln).
[out] -0.000672

[in] For the variant shown here, G6A C46U C66A A70G C71U , give the reported yeast fitness (ln).
[out] -0.169

[in] For the variant shown here, G1A U2G C27U A43C C46U C66A , give the reported yeast fitness (ln).
[out] -0.106

[in] For the variant shown here, U2C G6A A43C C66U A70G C71U , give the reported yeast fitness (ln).
[out] -0.0302

[in] For the variant shown here, G1A U2C G6A C66U A70U C71U , give the reported yeast fitness (ln).
[out] -0.159

[in] For the variant shown here, G1A G6A A43C C66A A70G C71U , give the reported yeast fitness (ln).
[out] -0.297
